These data points were gathered from patent US7417156B2.

Catalogue of Log10TGI50 values
- System: SW-620
- protocol.description: NCI 60 cell line panel screen (SRB)
- Assay type: cell-based, human
- experimental.context: SW-620 (Colon Cancer); TGI: PG=0
result.type: Log10TGI50

compound="CC1CCC2C(C)C(CC(CO)CC3OC4OC5(C)CCC6C(C)CCC(C3C)C46OO5)OC3OC4(C)CCC1C32OO4 (centres unmarked) [Compound 4, bis-trioxane primary alcohol]" experimental_target=SW-620 reported_value="−4.89 log10M"
compound="CC1CCC2C(C)C(CC(O)(CO)CC3OC4OC5(C)CCC6C(C)CCC(C3C)C46OO5)OC3OC4(C)CCC1C32OO4 (centres unmarked) [Compound 5, bis-trioxane vicinal diol]" experimental_target=SW-620 reported_value=">−4.00 log10M"
compound="CC1CCC2C(C)C(CC(COC(=O)c3cc[n+]([O-])cc3)CC3OC4OC5(C)CCC6C(C)CCC(C3C)C46OO5)OC3OC4(C)CCC1C32OO4 (centres unmarked) [Compound 13]" experimental_target=SW-620 reported_value="−5.05 log10M"
compound="CC(=O)O[C@H]1C(=O)[C@@]2(C)[C@H]([C@H](OC(=O)c3ccccc3)[C@]3(O)C[C@H](OC(=O)[C@H](O)[C@@H](NC(=O)c4ccccc4)c4ccccc4)C(C)=C1C3(C)C)[C@]1(OC(C)=O)CO[C@@H]1C[C@@H]2O [Paclitaxel, paclitaxel, reference compound]" experimental_target=SW-620 reported_value=">−4.00 log10M"
compound="C[C@@H]1CC[C@H]2[C@@H](C)C(=O)O[C@@H]3O[C@]4(C)CC[C@@H]1[C@]32OO4 [Artemisinin]" experimental_target=SW-620 reported_value=">−4.00 log10M"

---

Catalogue of Log10LC50 values
- Tested on: COLO 205
- protocol.description: NCI 60 cell line panel screen (SRB)
- Assay type: cell-based, human
- experimental.context: COLO 205 (Colon Cancer); LC50: PG=−50
result.type: Log10LC50 (log10M)

compound="C[C@@H]1CC[C@H]2[C@@H](C)C(CC(O)(CC3OC4O[C@]5(C)CC[C@H]6[C@H](C)CC[C@@H]([C@H]3C)C46OO5)c3ccc(C(=O)O)cc3)OC3O[C@]4(C)CCC1C32OO4 (some centres unmarked) [Compound 11b]" relation_sign== reported_value=−5.28
compound="CC1CCC2C(C)C(CC(CO)CC3OC4OC5(C)CCC6C(C)CCC(C3C)C46OO5)OC3OC4(C)CCC1C32OO4 (centres unmarked)" relation_sign== reported_value=−4.50
compound="CC1CCC2C(C)C(CC(O)(CC3OC4OC5(C)CCC6C(C)CCC(C3C)C46OO5)CS(=O)(=O)c3ccc(C(=O)O)cc3)OC3OC4(C)CCC1C32OO4 (centres unmarked) [Compound 10c]" relation_sign== reported_value=−5.55
compound="CC1CCC2C(C)C(CC(COC(=O)CCC(=O)O)CC3OC4OC5(C)CCC6C(C)CCC(C3C)C46OO5)OC3OC4(C)CCC1C32OO4 (centres unmarked) [Compound 8a, bis-trioxane primary succinate monoester]" relation_sign== reported_value=4.78
compound=C[C@@H]1CC[C@H]2[C@@H](C)C(=O)O[C@@H]3O[C@]4(C)CC[C@@H]1[C@]32OO4 relation_sign=> reported_value=−4.00

---

Catalogue of Log10GI50 values
- Tested on: CAKI-1
- protocol.description: NCI 60 cell line panel screen (SRB)
- Format: cell-based, human
- experimental.context: Renal Cancer, CAKI-1
result.type: Log10GI50

compound="CC1CCC2C(C)C(CC(COC(=O)CCC(=O)O)CC3OC4OC5(C)CCC6C(C)CCC(C3C)C46OO5)OC3OC4(C)CCC1C32OO4 (stereo not shown) [Compound 8a, bis-trioxane primary succinate monoester]" result_type=Log10GI50 reported_value=−6.84
compound="CC1CCC2C(C)C(CC(COC(=O)c3cc[n+]([O-])cc3)CC3OC4OC5(C)CCC6C(C)CCC(C3C)C46OO5)OC3OC4(C)CCC1C32OO4 (stereo not shown) [Compound 13]" result_type=Log10GI50 reported_value=−7.36
compound="CC1CCC2C(C)C(CC(CO)CC3OC4OC5(C)CCC6C(C)CCC(C3C)C46OO5)OC3OC4(C)CCC1C32OO4 (stereo not shown) [Compound 4, bis-trioxane primary alcohol]" result_type=Log10GI50 reported_value=−7.05
compound="C[C@@H]1CC[C@H]2[C@@H](C)C(CC(O)(CC3OC4O[C@]5(C)CC[C@H]6[C@H](C)CC[C@@H]([C@H]3C)C46OO5)c3ccc(C(=O)O)cc3)OC3O[C@]4(C)CCC1C32OO4 (stereo partly shown) [Compound 11b]" result_type=Log10GI50 reported_value=−7.74
compound="CC1CCC2C(C)C(CC(COCC(=O)O)CC3OC4OC5(C)CCC6C(C)CCC(C3C)C46OO5)OC3OC4(C)CCC1C32OO4 (stereo not shown) [Compound 12b, bis-trioxane O-acetic acid]" result_type=Log10GI50 reported_value=−6.91
compound="CC1CCC2C(C)C(CC(O)(CC3OC4OC5(C)CCC6C(C)CCC(C3C)C46OO5)CS(=O)(=O)c3ccc(C(=O)O)cc3)OC3OC4(C)CCC1C32OO4 (stereo not shown) [Compound 10c]" result_type=Log10GI50 reported_value=<−8.30
compound="CC1CCC2C(C)C(CC(O)(CO)CC3OC4OC5(C)CCC6C(C)CCC(C3C)C46OO5)OC3OC4(C)CCC1C32OO4 (stereo not shown) [Compound 5, bis-trioxane vicinal diol]" result_type=Log10GI50 reported_value=−4.94
